Hello, the source for this data is patent US20250312499A1, in case you need it.

Target: human kisspeptin receptor (Homo sapiens (Human))
Sequence (Q969F8 whole entry): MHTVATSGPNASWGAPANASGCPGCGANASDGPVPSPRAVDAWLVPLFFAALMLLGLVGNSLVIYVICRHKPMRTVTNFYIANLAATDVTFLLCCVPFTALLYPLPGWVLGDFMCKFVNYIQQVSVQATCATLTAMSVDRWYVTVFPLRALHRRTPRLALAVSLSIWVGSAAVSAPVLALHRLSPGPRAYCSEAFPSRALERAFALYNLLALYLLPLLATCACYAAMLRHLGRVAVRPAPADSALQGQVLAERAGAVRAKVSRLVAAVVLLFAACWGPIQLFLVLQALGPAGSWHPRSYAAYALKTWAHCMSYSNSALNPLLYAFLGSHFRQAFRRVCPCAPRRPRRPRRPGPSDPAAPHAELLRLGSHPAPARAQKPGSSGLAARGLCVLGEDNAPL
Assay: Human KISS1R binding assay (membrane competition binding)
Settings: 90 min at room temperature; competition with 0.2 nM [125I]-metastin (45-54); Flp-In T-Rex 293 kisspeptin membranes; metal complexes nonradioactive Ga, In, Lu; read-out: hKiSSR Binding Ki (90 min)
Description: Crude membrane fractions are prepared from Flp-In T-Rex 293 (Thermo Fisher) cell line expressing the human kisspeptin receptor. The cells are grown to 85-100% confluence on standard tissue culture dishes in Dulbecco's Modified Eagles Medium (DMEM) (Corning) supplemented with 10% FBS (Gemini), 1% penicillin-streptomycin-glutamine (Gibco), 500 μg/mL hygromycin, and 15 μg/mL blastacidin. […]
pKi: −log10 of the molar value. Square brackets hold non-standard residues; d marks the D form. Peptide text beside a SMILES is read from it. * marks the point of attachment. DOTA = O=C(O)CN1CCN(CC(=O)O)CCN(CC(=O)*)CCN(CC(=O)O)CC1; Gly(N-(3-F-4-Me-benzyl)) = Cc1ccc(CNCC(=O)*)cc1F; Gly(N-3-F-4-Me-benzyl) = Cc1ccc(CNCC(=O)O)cc1F; 2Nal = N[C@@H](Cc1ccc2ccccc2c1)C(=O)O; Api = NC1(C(=O)O)CCNCC1; PEG2 = NCCOCCOCCC(=O)O; Ahx = NCCCCCC(=O)O; azaGly = NNC(=O)O; Sar = CNCC(=O)O
recorded_metric: pKi

CNCC(=O)N1CCC(NC(=O)[C@H](CC(C)C)NC(=O)NNC(=O)[C@H](Cc2ccccc2)NC(=O)[C@@H](NC(=O)[C@H](CC(N)=O)NC(=O)[C@H](CCCCNC(=O)CN2CCN(CC(=O)O)CCN(CC(=O)O)CCN(CC(=O)O)CC2)NC(=O)[C@@H](Cc2ccc(O)cc2)NC(=O)CCOCCOCCNC(=O)CNCc2ccc(C)c(F)c2)[C@@H](C)O)(C(=O)N[C@@H](Cc2c[nH]c3ccccc23)C(N)=O)CC1 [Compound 384] (H-[Gly(N-3-F-4-Me-benzyl)][PEG2][dY]K(DOTA)NTF[azaGly]L[Api](Sar)W-NH2)    > 8.00

// below: pKi requested for another compound
Which measured pKi value corresponds to Cc1ccc(CNCC(=O)N2CCC(NC(=O)[C@H](CC(C)C)NC(=O)NNC(=O)[C@H](Cc3ccccc3)NC(=O)CCCCCNC(=O)[C@H](Cc3ccc4ccccc4c3)NC(=O)[C@H](Cc3ccc(O)cc3)NC(=O)CNC(=O)CN3CCN(CC(=O)O)CCN(CC(=O)O)CCN(CC(=O)O)CC3)(C(=O)N[C@@H](Cc3c[nH]c4ccccc34)C(N)=O)CC2)cc1F [Compound 307] ({DOTA}-GY[2Nal][Ahx]F[azaGly]L[Api](Gly(N-(3-F-4-Me-benzyl)))W-NH2) ? > 8.00
